Measured values drawn from patent US20230303552A1 for this set.

- TEST TARGET: human M5 receptors (hM5) (Homo sapiens, UniProt P08912)
- Construct: expressed in transfected cells
- Sequence (P08912 whole entry): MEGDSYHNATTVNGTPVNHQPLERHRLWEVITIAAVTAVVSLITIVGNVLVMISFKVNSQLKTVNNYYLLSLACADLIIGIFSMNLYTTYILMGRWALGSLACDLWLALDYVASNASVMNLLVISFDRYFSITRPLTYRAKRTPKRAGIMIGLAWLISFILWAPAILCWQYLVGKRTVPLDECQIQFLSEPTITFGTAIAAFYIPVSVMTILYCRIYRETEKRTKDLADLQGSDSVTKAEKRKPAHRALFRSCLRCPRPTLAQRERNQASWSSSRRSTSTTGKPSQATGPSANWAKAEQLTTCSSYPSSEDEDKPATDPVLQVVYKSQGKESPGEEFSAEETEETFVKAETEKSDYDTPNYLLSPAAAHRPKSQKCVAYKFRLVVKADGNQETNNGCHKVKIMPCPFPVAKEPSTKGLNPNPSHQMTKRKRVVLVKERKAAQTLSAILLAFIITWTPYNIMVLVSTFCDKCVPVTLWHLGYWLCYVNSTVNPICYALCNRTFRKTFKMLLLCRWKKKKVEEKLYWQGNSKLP
- PROTOCOL NOTES: Cell-based functional calcium mobilization assay of mAChR M5 activity (inhibition of EC80 acetylcholine response) in CHO cells
- CONDITION LABEL: CHO cells stably expressing hM5; minimum of EC80 acetylcholine response, normalized to maximum acetylcholine response
PARAMETER: EC80 MIN (%)

Some molecules with recorded EC80 MIN:
Field request: EC80 MIN | item: CC1(C)CN(S(=O)(=O)c2cc3c(cc2F)OCC3)CCC1C(=O)Nc1ccc2scnc2c1 (stereo not shown)
25

Which value of EC80 MIN has been reported for CC1(C)CN(S(=O)(=O)c2ccc(Cl)nc2)CCC1C(=O)Nc1ccc2scnc2c1 (stereo not shown) in the records?
3

P = O=C(Nc1ccc2scnc2c1)C1CCN(S(=O)(=O)c2ccc3c(c2)CCO3)C1 (racemic)
Q = O=C(Nc1ccc2scnc2c1)C1CCN(S(=O)(=O)c2ccsc2)CC1
I'm curious whether P or Q has the smaller EC80 MIN number. Which is it? Field: selected label. Fill in the label of the entry you choose.
P
